assay: Selectivity index, ratio of IC50 for human MRC5 cells to IC50 for mouse A20 cells
Non-standard residues stand in square brackets, D forms with d. Residues, ends and D or L forms follow the SMILES beside them. Dip = N[C@H](C(=O)O)C(c1ccccc1)c1ccccc1; AEA = NCCOCC(=O)O
Property: Ratio IC50

Molecule	Property	Data value
NCCCC[C@H](NC(=O)[C@H](Cc1c[nH]c2ccccc12)NC(=O)[C@H](Cc1c[nH]c2ccccc12)NC(=O)[C@H](CCCCN)NC(=O)[C@@H](N)CCCCN)C(=O)N[C@@H](CCCCN)C(=O)N[C@@H](Cc1c[nH]c2ccccc12)C(=O)N[C@H](C(=O)N[C@@H](CCCCN)C(=O)NN)C(c1ccccc1)c1ccccc1	Ratio IC50	10.4
NCCCC[C@H](NC(=O)[C@@H](NC(=O)[C@H](Cc1c[nH]c2ccccc12)NC(=O)[C@H](CCCCN)NC(=O)[C@H](CCCCN)NC(=O)[C@H](Cc1c[nH]c2ccccc12)NC(=O)[C@H](Cc1c[nH]c2ccccc12)NC(=O)[C@H](CCCCN)NC(=O)[C@H](CCCCN)NC(=O)COCCN)C(c1ccccc1)c1ccccc1)C(N)=O (H-[AEA]KKWWKKW[Dip]K-NH2)	Ratio IC50	4.1
CC(=O)N[C@@H](CCCCN)C(=O)N[C@@H](CCCCN)C(=O)N[C@@H](Cc1c[nH]c2ccccc12)C(=O)N[C@@H](Cc1c[nH]c2ccccc12)C(=O)N[C@@H](CCCCN)C(=O)N[C@@H](CCCCN)C(=O)N[C@@H](Cc1c[nH]c2ccccc12)C(=O)N[C@H](C(=O)N[C@@H](CCCCN)C(N)=O)C(c1ccccc1)c1ccccc1 (Ac-KKWWKKW[Dip]K-NH2)	Ratio IC50	5.1

====

test: Selectivity index, ratio of IC50 for human MRC5 cells to IC50 for mouse A20 cells
Non-standard residues stand in square brackets, D forms with d. Residues, ends and D or L forms follow the SMILES beside them. Dip = N[C@H](C(=O)O)C(c1ccccc1)c1ccccc1; Ahx = NCCCCCC(=O)O
Property: Ratio IC50

Compound	Data value
CC[C@@]1(OC(=O)CCC(=O)NCCOCCOCC(=O)N[C@H](CCCCN)C(=O)N[C@H](CCCCN)C(=O)N[C@H](Cc2c[nH]c3ccccc23)C(=O)N[C@H](Cc2c[nH]c3ccccc23)C(=O)N[C@H](CCCCN)C(=O)N[C@H](CCCCN)C(=O)N[C@H](Cc2c[nH]c3ccccc23)C(=O)N[C@@H](C(=O)N[C@H](CCCCN)C(N)=O)C(c2ccccc2)c2ccccc2)C(=O)OCc2c1cc1n(c2=O)Cc2cc3ccccc3nc2-1	12.9
NCCCCCC(=O)N[C@@H](CCCCN)C(=O)N[C@@H](CCCCN)C(=O)N[C@@H](Cc1c[nH]c2ccccc12)C(=O)N[C@@H](Cc1c[nH]c2ccccc12)C(=O)N[C@@H](CCCCN)C(=O)N[C@@H](CCCCN)C(=O)N[C@@H](Cc1c[nH]c2ccccc12)C(=O)N[C@H](C(=O)N[C@@H](CCCCN)C(N)=O)C(c1ccccc1)c1ccccc1 (H-[Ahx]KKWWKKW[Dip]K-NH2)	15.5

====

assay: Cytostatic activity against human MRC5 cells after 24 hrs by CCK-8 assay; assay type: toxicity, cell-based; conditions: human, MRC5 cells
Non-standard residues stand in square brackets, D forms with d. Residues, ends and D or L forms follow the SMILES beside them. *: point of attachment. Dip = N[C@H](C(=O)O)C(c1ccccc1)c1ccccc1; Ahx = NCCCCCC(=O)O; AEA = NCCOCC(=O)O; NHNH2 = NN*

Compound	IC50 at 24 h
CC[C@@]1(OC(=O)CCC(=O)NCCOCCOCC(=O)N[C@H](CCCCN)C(=O)N[C@H](CCCCN)C(=O)N[C@H](Cc2c[nH]c3ccccc23)C(=O)N[C@H](Cc2c[nH]c3ccccc23)C(=O)N[C@H](CCCCN)C(=O)N[C@H](CCCCN)C(=O)N[C@H](Cc2c[nH]c3ccccc23)C(=O)N[C@@H](C(=O)N[C@H](CCCCN)C(N)=O)C(c2ccccc2)c2ccccc2)C(=O)OCc2c1cc1n(c2=O)Cc2cc3ccccc3nc2-1	139 µM
CC[C@@]1(OC(=O)CCC(=O)NCCCC[C@@H](NC(=O)CCC(=O)O[C@]2(CC)C(=O)OCc3c2cc2n(c3=O)Cc3cc4ccccc4nc3-2)C(=O)NCCOCCOCC(=O)N[C@H](CCCCN)C(=O)N[C@H](CCCCN)C(=O)N[C@H](Cc2c[nH]c3ccccc23)C(=O)N[C@H](Cc2c[nH]c3ccccc23)C(=O)N[C@H](CCCCN)C(=O)N[C@H](CCCCN)C(=O)N[C@H](Cc2c[nH]c3ccccc23)C(=O)N[C@@H](C(=O)N[C@H](CCCCN)C(N)=O)C(c2ccccc2)c2ccccc2)C(=O)OCc2c1cc1n(c2=O)Cc2cc3ccccc3nc2-1	146 µM
NCCCC[C@H](NC(=O)[C@@H](NC(=O)[C@H](Cc1c[nH]c2ccccc12)NC(=O)[C@H](CCCCN)NC(=O)[C@H](CCCCN)NC(=O)[C@H](Cc1c[nH]c2ccccc12)NC(=O)[C@H](Cc1c[nH]c2ccccc12)NC(=O)[C@H](CCCCN)NC(=O)[C@H](CCCCN)NC(=O)COCCN)C(c1ccccc1)c1ccccc1)C(N)=O (H-[AEA]KKWWKKW[Dip]K-NH2)	67.4 µM
NCCCC[C@@H](N)C(=O)N[C@@H](C(=O)N[C@H](Cc1c[nH]c2ccccc12)C(=O)N[C@H](CCCCN)C(=O)N[C@H](CCCCN)C(=O)N[C@H](Cc1c[nH]c2ccccc12)C(=O)N[C@H](Cc1c[nH]c2ccccc12)C(=O)N[C@H](CCCCN)C(=O)N[C@H](CCCCN)C(N)=O)C(c1ccccc1)c1ccccc1	> 300 µM
CC(=O)N[C@@H](CCCCN)C(=O)N[C@@H](CCCCN)C(=O)N[C@@H](Cc1c[nH]c2ccccc12)C(=O)N[C@@H](Cc1c[nH]c2ccccc12)C(=O)N[C@@H](CCCCN)C(=O)N[C@@H](CCCCN)C(=O)N[C@@H](Cc1c[nH]c2ccccc12)C(=O)N[C@H](C(=O)N[C@@H](CCCCN)C(=O)NN)C(c1ccccc1)c1ccccc1 (Ac-KKWWKKW[Dip]K-NHNH2)	241 µM
NCCCCCC(=O)N[C@@H](CCCCN)C(=O)N[C@@H](CCCCN)C(=O)N[C@@H](Cc1c[nH]c2ccccc12)C(=O)N[C@@H](Cc1c[nH]c2ccccc12)C(=O)N[C@@H](CCCCN)C(=O)N[C@@H](CCCCN)C(=O)N[C@@H](Cc1c[nH]c2ccccc12)C(=O)N[C@H](C(=O)N[C@@H](CCCCN)C(N)=O)C(c1ccccc1)c1ccccc1 (H-[Ahx]KKWWKKW[Dip]K-NH2)	98.9 µM
NCCCC[C@H](NC(=O)[C@H](Cc1c[nH]c2ccccc12)NC(=O)[C@H](Cc1c[nH]c2ccccc12)NC(=O)[C@H](CCCCN)NC(=O)[C@@H](N)CCCCN)C(=O)N[C@@H](CCCCN)C(=O)N[C@@H](Cc1c[nH]c2ccccc12)C(=O)N[C@H](C(=O)N[C@@H](CCCCN)C(=O)NN)C(c1ccccc1)c1ccccc1	176 µM
NCCCC[C@H](NC(=O)[C@@H](NC(=O)[C@H](Cc1c[nH]c2ccccc12)NC(=O)[C@H](CCCCN)NC(=O)[C@H](CCCCN)NC(=O)[C@H](Cc1c[nH]c2ccccc12)NC(=O)[C@H](Cc1c[nH]c2ccccc12)NC(=O)[C@H](CCCCN)NC(=O)[C@@H](N)CCCCN)C(c1ccccc1)c1ccccc1)C(N)=O [RUXOTEMITIDE] (H-KKWWKKW[Dip]K-NH2)	103 µM
NCCCC[C@H](NC(=O)[C@H](CCCCN)NC(=O)[C@H](Cc1c[nH]c2ccccc12)NC(=O)[C@H](Cc1c[nH]c2ccccc12)NC(=O)[C@H](CCCCN)NC(=O)[C@H](CCCCN)NC(=O)[C@H](Cc1c[nH]c2ccccc12)NC(=O)[C@@H](NC(=O)[C@@H](N)CCCCN)C(c1ccccc1)c1ccccc1)C(N)=O	> 300 µM
